System: NOMO1
Test: cell viability relative to DMSO control; higher = less cytotoxic
Conditions: HPLM + 10% dialyzed FBS; 48 h; 0.00234 µM
property.measured: cell viability (%)

> print(dat)
                                    molecule  measurement.unit  obs.value
 1  COC1=CC2=C(C=C1OC)[C@H]3[C@@H](CO2)OC4=C(C=CC5=C4\C=C/C(C)(C)O5)C3=O                 %       89.3
 2            CCCCCCCCc1ccc(CCC(N)(CO)CO)cc1                 %        124
 3    COC(=O)[C@@H](N)CCCNC(=N)N[N+](=O)[O-]                 %       97.2
 4  COc1ccc2c(c1OC)CN1CCc3cc4c(cc3C1C2)OCO4 (stereo not drawn)                 %       82.4
 5        CN(C)CCN(Cc1ccc(Cl)cc1)c1ccccn1.Cl                 %       90.2
 6  CC(C)(C)NC(=O)[C@@H]1CN(Cc2cccnc2)CCN1C[C@@H](O)C[C@@H](Cc1ccccc1)C(=O)N[C@H]1c2ccccc2C[C@H]1O.O=S(=O)(O)O                 %        122
 7  CN(C)C[C@@H]1CC[N]2C=C(C3=C2C=CC=C3)C/4=C(/C(=O)NC4=O)C5=C[N](CCO1)C6=C5C=CC=C6                 %        111
 8  CCNc1cc(NC2CCC(O)CC2)nc(Nc2ccc3c(ccn3Cc3ccccc3)c2)n1 (stereo not drawn)                 %        121
 9  CC(=O)[C@H]1CC[C@H]2[C@@H]3CCC4=CC(=O)CC[C@]4(C)[C@H]3CC[C@]12C                 %        122
10  CCN(CC)CCN1C(=O)\C(=N/C2=CC=CC=C12)CC3=CC=C(OC)C=C3                 %        117
11  CN[C@@H]1C[C@H]2O[C@@](C)([C@@H]1OC)n1c3ccccc3c3c4c(c5c6ccccc6n2c5c31)C(=O)N[C@H]4O                 %        101
12  OC(COC1=C2C(=O)\C=C(/OC2=CC=C1)C([O-])=O)COC3=C4C(=O)\C=C(/OC4=CC=C3)C([O-])=O                 %       86.8
13  Cc1ccc(C(=O)c2cc(O)c(O)c([N+](=O)[O-])c2)cc1                 %        104
14  CCCCCCCCCCCCCCCCCCOP(=O)([O-])OC1CC[N+](C)(C)CC1                 %        114
15                  Cc1cc(Cl)ccc1OCCCC(=O)NO                 %        117
16  CN(C)CCCNC(=O)c1ccc(-c2cc(O)c3ncccc3c2)cc1                 %        110
17  CCNC(=O)[C@H]1O[C@@H](n2cnc3c(N)nc(NCCc4ccc(CCC(=O)O)cc4)nc32)[C@H](O)[C@@H]1O                 %       83.1
18    Cc1cc(O)c2c(c1)C(=O)c1cc(O)cc(O)c1C2=O                 %        102

The measured values listed here are drawn from the supplement of paper PMC11451515.
